- Test system: SF-268 CNS
- protocol_summary: NCI tumour cell line growth inhibition, 48 h; in the data active means GI50 below about 0.43 µM; inactive means the rest
Hi! Could you answer with just one of these? y = active, n = inactive

Look up the recorded call for O=C1NC(=O)C(c2ccccc2)=C1Nc1ccccc1 in this test.
n

Hey, what did the test say about CCCCCCc1cc2cc(-c3csc(/C=C/c4ccccc4)n3)c(=O)oc2cc1O ?
n

Hello, I am checking results. What call was entered for COc1ccc(C2CC(c3ccc4ccccc4c3)=NN2c2nc(O)c(C3=c4cc(OC)ccc4=NC3=O)s2)cc1 (configuration not stated) ?
y

Hi, do you know how O=c1[nH]c2ccccc2n2cc3ccccc3c12 came out in this test?
n

Query: recorded result category for O=C(c1cccs1)c1nc2cc(Cl)ccc2[n+]([O-])c1C(F)(F)F in this test
n

Recorded test call requested for O=C(NS(=O)(=O)c1ccc(NC[C@H]2COCCO2)c([N+](=O)[O-])c1)c1ccc(N2CCN(CC3=C(c4ccc(Cl)cc4)CC4(CCC4)CC3)CC2)cc1Oc1cnc2[nH]ccc2c1
n

Which outcome was assigned to O=C([O-])CCc1ccccc1.O=C([O-])CCc1ccccc1.O=C([O-])CCc1ccccc1.O=C([O-])CCc1ccccc1.[Mo+2].[Mo+2] in this test?
n

Could you kindly confirm the outcome this assay logged for O=C(/C=C/c1nnc2n(Cc3ccccc3)c(=O)c3c4c(sc3n12)CCCC4)c1ccccc1 ?
n

Please let me know the test result on file for CCOC(=O)[C@@H](C)C[C@H](Cc1ccccc1)NC(=O)c1csc([C@@H](C[C@H](C(C)C)N(C)C(=O)[C@@H](NC(=O)[C@H]2C[C@H](O)CCN2C)C(C)C)OC(C)=O)n1 .
y

What did the test return for COc1ccc(/C=C/C(=O)c2ccc(Nc3nc(Nc4ccc(F)cc4)nc(Nc4ccc(Cl)cc4)n3)cc2)cc1 ?
n

Call for entry NC(=N\N=C/c1ccc(Cl)cc1Cl)/C(N)=N\N=C/c1ccc(Cl)cc1Cl :
n

Test call, this molecule: CCC(C)CC(C)C(=O)c1c(O)ccn(O)c1=O (configuration not stated)
n
